The following compounds are shown together with reported inhibition at 10 µM values.
# target under test: 5-lipo-oxygenase (Oryctolagus cuniculus, UniProt G1SNX0)
# Construct: a preparation of calcium ionophore A23187 stimulated rabbit leukocites; endogenous in cells; host or cells: rabbit leukocytes
# Sequence (G1SNX0 1-674): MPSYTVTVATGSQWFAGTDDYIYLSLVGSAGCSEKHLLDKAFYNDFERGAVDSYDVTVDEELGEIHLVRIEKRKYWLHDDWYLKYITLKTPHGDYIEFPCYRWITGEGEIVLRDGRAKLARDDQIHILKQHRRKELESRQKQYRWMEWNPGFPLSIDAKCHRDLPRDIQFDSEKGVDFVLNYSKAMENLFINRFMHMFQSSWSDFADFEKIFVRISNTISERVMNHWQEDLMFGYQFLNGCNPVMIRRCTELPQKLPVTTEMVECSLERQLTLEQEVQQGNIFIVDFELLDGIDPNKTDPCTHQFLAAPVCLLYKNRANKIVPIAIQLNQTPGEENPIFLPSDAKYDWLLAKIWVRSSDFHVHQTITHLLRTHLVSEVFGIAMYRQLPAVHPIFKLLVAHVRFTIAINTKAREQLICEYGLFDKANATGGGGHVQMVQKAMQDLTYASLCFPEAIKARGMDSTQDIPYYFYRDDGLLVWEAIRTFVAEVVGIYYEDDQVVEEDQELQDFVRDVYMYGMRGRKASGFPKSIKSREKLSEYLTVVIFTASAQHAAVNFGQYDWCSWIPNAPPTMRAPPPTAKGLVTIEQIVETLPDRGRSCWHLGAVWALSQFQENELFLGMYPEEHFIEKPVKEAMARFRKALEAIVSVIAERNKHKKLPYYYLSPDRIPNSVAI
# assay notes: In vitro 5-lipo-oxygenase activity: formation of leukotriene B4 from [14C] arachidonic acid in calcium ionophore A23187 stimulated rabbit leukocytes (radiometric T.L.C. assay)
# Format: cell-based
# test conditions: read-out: 5-LO (% of inhibition at 10 µM)
Your answer is read as %, so omit the unit and give the number.

CCCCCCC#CCc1cc(OC)ccc1O | 92
COc1ccc(O)c(CC#Cc2ccccc2)c1 | 57
Oc1cccc(CC#Cc2ccccc2)c1O | 90

Exam item: Can you share its inhibition at 10 µM? I mean this compound: COc1ccc2c(c1)c(CC(=O)O)c(C)n2C(=O)c1ccc(Cl)cc1 [INDOMETHACIN, reference compound]
Marked response: 0

Exam item: Fill in the blank: the reported inhibition at 10 µM of NC1=NN(c2cccc(C(F)(F)F)c2)CC1 [BW 755 c, reference compound] is ____.
Marked response: 25

Exam item: Please give the measured inhibition at 10 µM for this compound: `COc1cccc(CC#Cc2ccccc2)c1O`
Marked response: 52

Exam item: Returns the measured inhibition at 10 µM for the input compound. Input: CC(C#Cc1ccccc1)c1cc(OCc2ccccc2)ccc1O (stereo not drawn)
Marked response: 68

Exam item: Which measured inhibition at 10 µM value corresponds to CC(Cc1ccc(O)c(O)c1)C(C)Cc1ccc(O)c(O)c1 (stereo not drawn) [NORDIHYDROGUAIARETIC ACID, reference compound] ?
Marked response: 92

Exam item: Quick check: inhibition at 10 µM of COc1ccc(O)c(C(C)C#Cc2ccccc2)c1 (stereo not drawn) ?
Marked response: 46
